- TESTED_SYSTEM: Group IIA purified human synovial sPLA2 (Homo sapiens, UniProt P14555)
- Construct: purchased Cayman, USA
- PROTOCOL_DETAILS: In vitro inhibition of purified human synovial sPLA2, 3H-labelled E. coli membranes
- Format: biochemical
- RUN_PARAMETERS: 3H-labelled E. coli membranes as substrate
Where a SMILES comes first, the peptide text is derived from it.

{"columns": ["MOLECULE", "IC50"],
 "data": [
  ["CC[C@H](C)[C@H](NC(=O)[C@H](Cc1ccc(O)cc1)NC(=O)[C@@H](NC(=O)CNC(=O)[C@H](CC(=O)O)NC(=O)[C@H](Cc1c[nH]c2ccccc12)NC(=O)[C@@H](NC(=O)[C@H](Cc1cnc[nH]1)NC(=O)[C@@H](NC(=O)[C@H](CC(=O)O)NC(=O)[C@@H](NC(=O)[C@H](CCCNC(=N)N)NC(=O)CNC(=O)[C@@H](N)CC(C)C)C(C)C)[C@@H](C)CC)C(C)C)C(C)C)C(=O)N[C@@H](CCCNC(=N)N)C(=O)NCC(=O)N[C@@H](CCCNC(=N)N)C(=O)O [P-NT.II] (H-LGRVDIHVWDGVYIRGR-OH)", "5.3 µM"],
  ["CC[C@H](C)[C@H](NC(=O)[C@H](CC(=O)O)NC(=O)[C@@H](N)C(C)C)C(=O)N[C@@H](Cc1cnc[nH]1)C(=O)N[C@H](C(=O)N[C@@H](Cc1c[nH]c2ccccc12)C(=O)N[C@@H](CO)C(=O)NCC(=O)N[C@H](C(=O)O)C(C)C)C(C)C [D65S-PIP (59–67)] (H-VDIHVWSGV-OH)", "5.25 µM"],
  ["CC[C@H](C)[C@H](NC(=O)[C@H](CC(=O)O)NC(=O)[C@@H](N)C(C)C)C(=O)N[C@@H](Cc1cnc[nH]1)C(=O)N[C@H](C(=O)N[C@@H](Cc1c[nH]c2ccccc12)C(=O)N[C@@H](CCC(=O)O)C(=O)NCC(=O)N[C@H](C(=O)O)C(C)C)C(C)C [D65E-PIP (59–67)] (H-VDIHVWEGV-OH)", "4.95 µM"]
]}

* * *

Some compounds, each annotated with its measured pIC50.
- TESTED_SYSTEM: Group IIA purified human synovial sPLA2 (Homo sapiens, UniProt P14555)
- Construct: purchased Cayman, USA
- Sequence (P14555 21-144): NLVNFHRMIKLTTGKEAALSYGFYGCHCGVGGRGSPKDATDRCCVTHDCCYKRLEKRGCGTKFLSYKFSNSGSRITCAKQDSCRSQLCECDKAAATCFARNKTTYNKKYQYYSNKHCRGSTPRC
- PROTOCOL_DETAILS: In vitro inhibition of purified human synovial sPLA2, 3H-labelled E. coli membranes
- Format: biochemical
- RUN_PARAMETERS: 3H-labelled E. coli membranes as substrate
pIC50: −log10 of the molar value. Where a SMILES comes first, the peptide text is derived from it.

{"columns": ["COMPOUND", "pIC50"],
 "data": [
  ["CC[C@H](C)[C@H](NC(=O)[C@H](CC(=O)O)NC(=O)[C@@H](N)C(C)C)C(=O)N[C@@H](Cc1cnc[nH]1)C(=O)N[C@H](C(=O)N[C@@H](Cc1c[nH]c2ccccc12)C(=O)N[C@@H](C)C(=O)NCC(=O)N[C@H](C(=O)O)C(C)C)C(C)C [D65A-PIP (59–67)] (H-VDIHVWAGV-OH)", 5.26],
  ["CC[C@H](C)[C@H](NC(=O)[C@@H](N)CC(=O)O)C(=O)N[C@@H](Cc1c[nH]cn1)C(=O)N[C@H](C(=O)N[C@@H](Cc1c[nH]c2ccccc12)C(=O)N[C@@H](CC(=O)O)C(=O)NCC(=O)N[C@H](C(=O)O)C(C)C)C(C)C [PIP (60–67)] (H-DIHVWDGV-OH; N-terminus and C-terminus assumed)", 5.24],
  ["CC[C@H](C)[C@H](NC(=O)[C@H](CCC(=O)O)NC(=O)[C@@H](N)C(C)C)C(=O)N[C@@H](Cc1c[nH]cn1)C(=O)N[C@H](C(=O)N[C@@H](Cc1c[nH]c2ccccc12)C(=O)N[C@@H](CCC(=O)O)C(=O)NCC(=O)N[C@H](C(=O)O)C(C)C)C(C)C [D60, 65E-PIP (59–67)] (H-VEIHVWEGV-OH; N-terminus and C-terminus assumed)", 5.38]
]}
